Provenance of the data: ChEMBL document CHEMBL3745686

Tested on: Plasma
Experiment: Metabolic stability in rat plasma assessed as first order elimination rate constant at 50 uM measured at 1 to 4 hrs
Assay type: ADME, cell-free
endpointLabel: Kel (h⁻¹)

- CSc1nc(N)c2ncn([C@@H]3O[C@H](COP(=O)([S-])OP(=O)([O-])C(Cl)P(=O)([O-])OP(=O)([S-])OC[C@H]4O[C@@H](n5cnc6c(N)nc(SC)nc65)[C@H](O)[C@@H]4O)[C@@H](O)[C@H]3O)c2n1.[Na+].[Na+].[Na+].[Na+] (mixture of isomers): 0.147
- CSc1nc(N)c2ncn([C@@H]3O[C@H](COP(=O)([S-])OP(=O)([O-])C(Cl)P(=O)([O-])OP(=O)([S-])OC[C@H]4O[C@@H](n5cnc6c(N)nc(SC)nc65)[C@H](O)[C@@H]4O)[C@@H](O)[C@H]3O)c2n1.[Na+].[Na+].[Na+].[Na+] (single isomer, unassigned; diastereomer 1): 0.0069
- CSc1nc(N)c2ncn([C@@H]3O[C@H](COP(=O)([S-])OP(=O)([O-])C(Cl)P(=O)([O-])OP(=O)([S-])OC[C@H]4O[C@@H](n5cnc6c(N)nc(SC)nc65)[C@H](O)[C@@H]4O)[C@@H](O)[C@H]3O)c2n1.[Na+].[Na+].[Na+].[Na+] (single isomer, unassigned; diastereomer 4): 0.508
